I'd appreciate it if you could supply % Drug Lost from the Hole values for the items below.
test: Loss of drug from donor hole of Teflon disc placed on stratum corneum; type: in vitro ADME; settings: drug in PBS, 2 mm hole, human SC, 24 hours contact, liquid scintillation counting
Provide the reading as a plain figure in %.

Query: Item under review: c1ccc2ccccc2c1 . Reported % Drug Lost from the Hole?
Result: 47

Query: I am curious: what % Drug Lost from the Hole value has been reported for CCCCCCCCCCCCCCCCCCO ?
Result: 77

Query: Which % Drug Lost from the Hole is listed for C[C@]12CC[C@H]3[C@@H](CCC4=CC(=O)CC[C@@]43C)[C@@H]1CC[C@@H]2O ?
Result: 24

Query: Need % Drug Lost from the Hole, item CC(=O)[C@H]1CC[C@H]2[C@@H]3CCC4=CC(=O)CC[C@]4(C)[C@H]3CC[C@]12C
Result: 44

Query: Please report the recorded % Drug Lost from the Hole for CCCCCCCCO .
Result: 47

Query: # query: % Drug Lost from the Hole of entry C[C@]12CCC(=O)C=C1CC[C@@H]1[C@@H]2[C@@H](O)C[C@]2(C=O)[C@@H](C(=O)CO)CC[C@@H]12
Result: 9

Query: Consider the compound shown here: CCCCCCO What is its recorded % Drug Lost from the Hole?
Result: 31
